All figures here come from PubChem BioAssay.

assay: yeast AGP1-GFP level changes, GLN3 branch – cell-based, multiplex flow cytometry, S. cerevisiae, primary screen (AID 1887); conditions: 3 h, at 10 µM, hits give high values;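 also: AGP1-GFP fusion strain of S. cerevisiae within a five-strain barcoded multiplex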
Results filed as inconclusive are left out.
Listing of entries alongside the reported GFP response, % of DMSO.
Give just the numeric value; % need not be written.

Example cases with answers are listed next.
molecule=Cc1nc2c(c3c1[nH]c1ccccc13)C(=O)CC(C)(C)C2 test_result=102
molecule="CC(C)(C)C(=O)N1CCCC1C(=O)O (stereo not given)" test_result=106
molecule=Cc1nc(N)sc1C(=O)N/N=C/c1ccco1 test_result=115
molecule="CCCCCCCC(=O)OCC(O)CO (stereo not given)" test_result=90.3
molecule=CC(=O)OCC#CCSc1nc2ccccc2n1C test_result=92.9
molecule=CC(=O)OCC(=O)[C@H]1CC[C@H]2[C@@H]3CCC4=CC(=O)CC[C@]4(C)[C@H]3CC[C@]12C test_result=86.3
molecule=O=C(CCC(=O)c1cccs1)c1cccs1 test_result=86.5
molecule=CCc1cc(-c2[nH]ncc2-c2ccc3c(c2)OCO3)c(O)cc1O test_result=99.5

Need GFP response, % of DMSO, item CC(=O)C1=C(Nc2ccc(C)cc2)CC(C)(O)C(C(C)=O)C1c1ccco1 (stereo not given) 97.2

Please answer likewise for N#C/C(C(N)=O)=c1/ccc2c(c1)N1C3=C(CCCC3)CC3CCCCC31N=2 (stereo not given) 105
